test system: TALE test backbone, repeat 5 RVD AA (synthetic (Xanthomonas TALE)); details: ELISA
Test readout: binding signal (normalized ELISA)
Reply with just the number.

Exercise: // Input: TTGACAATCCT (double strand) [CAA target] . Output its binding signal (normalized ELISA) only.
Key: 0.34

Exercise: // Input: TTGACGATCCT (double strand) [CGA target] . Output its binding signal (normalized ELISA) only.
Key: 0.06

Exercise: // Input: TTGACTATCCT (double strand) [CTA target] . Output its binding signal (normalized ELISA) only.
Key: 0.61

Exercise: // Input: TTGACCATCCT (double strand) [CCA target] . Output its binding signal (normalized ELISA) only.
Key: 0.35
